# System: NCC-MFS5-C1
# Assay comment: cell viability relative to DMSO control; higher = less growth inhibition
# Assay conditions: 10 µM; treatment time: 3 days
# Lookup of reported cell viability keyed by entry
# number then unit; no other words

Worked set:
{"columns": ["Compound", "cell viability"],
 "data": [
  ["C[C@]12CC[C@@H]3c4ccc(O)cc4C[C@@H](CCCCCCCCC[S+]([O-])CCCC(F)(F)C(F)(F)F)[C@H]3[C@@H]1CC[C@@H]2O (some centres undefined)", "74.4%"],
  ["COc1ccc(C2=N[C@@H](c3ccc(Cl)cc3)[C@@H](c3ccc(Cl)cc3)N2C(=O)N2CCNC(=O)C2)c(OC(C)C)c1", "88.6%"],
  ["O=C1CCC(N2C(=O)c3ccccc3C2=O)C(=O)N1 (centres undefined) [Thalidomide]", "84.4%"]
]}

get_value(item= CCOc1cc(C(C)(C)C)ccc1C1=N[C@@](C)(c2ccc(Cl)cc2)[C@@](C)(c2ccc(Cl)cc2)N1C(=O)N1CCN(CCCS(C)(=O)=O)CC1 , readout=cell viability) returns 96%

====

# Tested on: NCC-MFS5-C1
# Assay comment: cell viability relative to DMSO control; higher = less growth inhibition
# Assay conditions: 10 µM; treatment time: 3 days
Parameter measured: cell viability (%)
Numeric answer only, unit % assumed.

{"columns": ["Molecule", "cell viability (%)"],
 "data": [
  ["COc1cc(Nc2ncc(F)c(Nc3ccc4c(n3)N(COP(=O)(O)O)C(=O)C(C)(C)O4)n2)cc(OC)c1OC [Fostamatinib (R788)]", 29.5],
  ["O=P(O)(O)C(O)(Cn1ccnc1)P(=O)(O)O", 84.5],
  ["Nc1nc(F)nc2c1ncn2[C@@H]1O[C@H](COP(=O)(O)O)[C@@H](O)[C@@H]1O [Fludarabine Phosphate]", 104]
]}

Record O=C1c2c(O)ccc(O)c2C(=O)c2c(NCCNCCO)ccc(NCCNCCO)c21 [Mitoxantrone 2HCl] , field cell viability: -0.766

====

# System: NCC-MFS5-C1
# Assay comment: cell viability relative to DMSO control; higher = less growth inhibition
# Assay conditions: 10 µM; treatment time: 3 days
Structures can show the parent of a compound that is named as a salt.
Parameter measured: cell viability (%)
Report the value in % with no unit label.

{"columns": ["Compound", "Recorded result"],
 "data": [
  ["COc1cccc2c1C(=O)c1c(O)c3c(c(O)c1C2=O)C[C@@](O)(C(C)=O)C[C@@H]3O[C@H]1C[C@H](N)[C@H](O)[C@H](C)O1 [Daunorubicin HCl]", 14.4],
  ["O=C(c1cc(Cc2n[nH]c(=O)c3ccccc23)ccc1F)N1CCN(C(=O)C2CC2)CC1", 78],
  ["Nc1nc(F)nc2c1ncn2[C@@H]1O[C@H](CO)[C@@H](O)[C@@H]1O", 96.3]
]}

Shifting focus to the compound that follows.
Kindly note the recorded cell viability for Cc1ccc(-c2cc(C(F)(F)F)nn2-c2ccc(S(N)(=O)=O)cc2)cc1 , which is 72.1

====

Measured cell viability by item
# Test system: NCC-MFS5-C1
# Assay comment: cell viability relative to DMSO control; higher = less growth inhibition
# Assay conditions: 10 µM; treatment time: 3 days
Where a name gives a salt, the structure may show the parent alone.
Give the value, in units of %, as a plain number.

{"columns": ["Molecule", "Parameter measured", "Units text", "Recorded result"],
 "data": [
  ["Nc1ncn([C@H]2C[C@H](O)[C@@H](CO)O2)c(=O)n1", "cell viability", "%", 134],
  ["O=NN(CCCl)C(=O)NC1CCCCC1", "cell viability", "%", 84.1],
  ["Nc1ccn([C@@H]2O[C@H](CO)[C@@H](O)C2(F)F)c(=O)n1 [Gemcitabine HCl]", "cell viability", "%", 79.5],
  ["CO[C@H]1C[C@@H]2CC[C@@H](C)[C@@](O)(O2)C(=O)C(=O)N2CCCC[C@H]2C(=O)O[C@H]([C@H](C)C[C@@H]2CC[C@@H](OCCO)[C@H](OC)C2)CC(=O)[C@H](C)/C=C(\\C)[C@@H](O)[C@@H](OC)C(=O)[C@H](C)C[C@H](C)/C=C/C=C/C=C/1C [Everolimus (RAD001)]", "cell viability", "%", 64.9]
]}

Now turn to the next molecule.
Consider CCS(=O)(=O)N1CCN(c2ccc(Nc3ncc(C(N)=O)c(NC4CC4)n3)cc2)CC1 . Its measured cell viability is 61.5

====

# maps each entry to its cell viability
# System: NCC-MFS5-C1
# Assay comment: cell viability relative to DMSO control; higher = less growth inhibition
# Assay conditions: 10 µM; treatment time: 3 days
Entry rule: numbers only, all in %.

{"columns": ["Compound", "Units text", "cell viability"],
 "data": [
  ["Oc1ncnc2[nH]ncc12", "%", 86.2],
  ["Clc1ccc(C(c2ccccc2Cl)C(Cl)Cl)cc1 (centres undefined)", "%", 76.1],
  ["Cc1nc(Nc2ncc(C(=O)Nc3c(C)cccc3Cl)s2)cc(N2CCN(CCO)CC2)n1", "%", 55.3]
]}

Query CC1=C(CC(=O)O)c2cc(F)ccc2/C1=C\c1ccc([S+](C)[O-])cc1 (centres undefined) yields cell viability of 104

====

# Tested on: NCC-MFS5-C1
# Assay comment: cell viability relative to DMSO control; higher = less growth inhibition
# Assay conditions: 10 µM; treatment time: 3 days
Where a name gives a salt, the structure may show the parent alone.
Readings of cell viability for the listed compounds
Express your answer as a number followed by its unit.

Reference set (5 entries):
{"columns": ["Compound", "Recorded result"],
 "data": [
  ["CS(=O)(=O)c1ccc(C(=O)Nc2ccc(Cl)c(-c3ccccn3)c2)c(Cl)c1 [Vismodegib (GDC-0449)]", "70.2%"],
  ["Cc1ccc(NC(=O)c2ccc(CN3CCN(C)CC3)cc2)cc1Nc1nccc(-c2cccnc2)n1 [Imatinib Mesylate (STI571)]", "69.6%"],
  ["N#Cc1ccc(C(c2ccc(C#N)cc2)n2cncn2)cc1 [Letrozole]", "92.3%"],
  ["Nc1nc(Cl)nc2c1ncn2[C@@H]1O[C@H](CO)[C@@H](O)[C@@H]1F [Clofarabine]", "98.8%"],
  ["O=C(c1ccc(OCCN2CCCCC2)cc1)c1c(-c2ccc(O)cc2)sc2cc(O)ccc12 [Raloxifene HCl]", "85%"]
]}

The recorded cell viability for entry O=C(CCCCCCC(=O)Nc1ccccc1)NO [Vorinostat (SAHA, MK0683)] equals 34.5%

Given item CCN1CCN(c2ccc(Nc3cc(N(C)C(=O)Nc4c(Cl)c(OC)cc(OC)c4Cl)ncn3)cc2)CC1 , the value recorded as its cell viability is 59.8%

Measured cell viability of CCN(CC)CCNC(=O)c1c(C)[nH]c(/C=C2\C(=O)Nc3ccc(F)cc32)c1C [Sunitinib] : 67.9%

So for CC/C(=C(/CC)c1ccc(O)cc1)c1ccc(O)cc1 [Diethylstilbestrol] , the logged cell viability turned out to be 87.8%

Form: compound = C#CCC(Cc1cnc2nc(N)nc(N)c2n1)c1ccc(C(=O)N[C@@H](CCC(=O)O)C(=O)O)cc1 (stereo not given in full) [Pralatrexate] ; cell viability = 85%

====

# Tested on: NCC-MFS5-C1
# Assay comment: cell viability relative to DMSO control; higher = less growth inhibition
# Assay conditions: 10 µM; treatment time: 3 days
Structures can show the parent of a compound that is named as a salt.
Parameter measured: cell viability
Could you give the number and then its unit, please?

{"columns": ["Compound", "cell viability"],
 "data": [
  ["Nc1ncn([C@@H]2O[C@H](CO)[C@@H](O)[C@H]2O)c(=O)n1", "104%"],
  ["Cn1nnc2c(C(N)=O)ncn2c1=O [Temozolomide]", "99.4%"],
  ["CS(=O)(=O)CCNCc1ccc(-c2ccc3ncnc(Nc4ccc(OCc5cccc(F)c5)c(Cl)c4)c3c2)o1", "77.3%"],
  ["NCC(=O)CCC(=O)O [5-Aminolevulinic acid HCl]", "85.7%"],
  ["O=C(CCBr)N1CCN(C(=O)CCBr)CC1", "108%"]
]}

Entry CNC(=O)c1cc(Oc2ccc(NC(=O)Nc3ccc(Cl)c(C(F)(F)F)c3)cc2)ccn1 [Sorafenib] ; cell viability = 64.2%
